# target: Thyrotropin receptor (Homo sapiens)
# procedure_summary: qHTS for antagonists of the Thyroid Stimulation Hormone Receptor: Hit Validation in Primary Screen; note: nearly all actives have a fitted effect of over 80% in size
# assay_setup: TSHR-expressing cells, cAMP antagonist mode; series mostly up to 58 µM
The whole screen tested about 1,300 compounds, of which about 380 (29%) were called active. About 37% were inconclusive and are not listed. Calls come from the whole dose curve; as a rule, active = well fitted inhibition curve with a large enough effect; inconclusive = small, poorly fitted or top-dose-only effect; inactive = flat fitted curve, though single readings scatter. Some of the results follow.
Labels: active, inactive

- compound: "COc1ccc(N2CCN(c3ncnc4sc(C(=O)NCC5CCCO5)c(C)c34)CC2)cc1 (stereo not given)"
  assigned_category: "inactive"
- compound: "Cn1c2c(c(=O)n(C)c1=O)C(C(F)(F)F)(C(F)(F)F)N=C(c1ccc(Cl)cc1)N2"
  assigned_category: "active"
- compound: "CCN(C(=O)c1cc2c(=O)n3ccccc3nc2n1C)C1CCCCC1"
  assigned_category: "inactive"
- compound: "CCOC(=O)Cn1c(=NC(=O)CSC(C)=O)sc2ccccc21"
  assigned_category: "inactive"
- compound: "O=C(Nc1nc2ccc(F)cc2s1)C1CCN(S(=O)(=O)c2cc([N+](=O)[O-])ccc2Cl)CC1"
  assigned_category: "active"

---

# target: Thyrotropin receptor (Homo sapiens)
# procedure_summary: qHTS for antagonists of the Thyroid Stimulation Hormone Receptor: Hit Validation in Primary Screen; note: nearly all actives have a fitted effect of over 80% in size
# assay_setup: TSHR-expressing cells, cAMP antagonist mode; series mostly up to 58 µM
In all, about 1,300 compounds went through this assay and about 380 (29%) were called active. Another 37% or so got no clear call; they are omitted. Calls follow the shape of the dose curve; as a rule, active = well fitted inhibition curve with a large enough effect; inconclusive = small, poorly fitted or top-dose-only effect; inactive = flat fitted curve, though single readings scatter. This is one part of the list.
Labels: active, inactive

- compound: "CCc1ccc(-c2cc(C)no2)cc1S(=O)(=O)N1CCN(c2ccccn2)CC1"
  assigned_category: "active"
- compound: "O=c1/c(=C/c2ccc(O)c([N+](=O)[O-])c2)sc2nc3ccccc3n12"
  assigned_category: "active"
- compound: "N#C/C(=C\\c1ccc(O)c([N+](=O)[O-])c1)c1nc2ccccc2s1"
  assigned_category: "active"
- compound: "O=C(Nc1ccc(Cl)c(Cl)c1)c1cccc(S(=O)(=O)NCc2cccnc2)c1"
  assigned_category: "active"
- compound: "COc1cc(C(C)=O)ccc1OCC(=O)Nc1ccc(C)c(S(=O)(=O)N2CCCCCC2)c1"
  assigned_category: "active"
- compound: "COC(=O)CN1C(=O)COc2ccc(S(=O)(=O)N3CCCC3)cc21"
  assigned_category: "inactive"
- compound: "O=C(Nc1cccc(Cl)c1)Nc1ccc(Br)cc1F"
  assigned_category: "active"
- compound: "Cc1ccc(NC(=O)c2cccc(OCc3c(C)noc3C)c2)cc1S(=O)(=O)Nc1ccccc1Cl"
  assigned_category: "inactive"
- compound: "CCc1cc(CNC(=O)CC2C(=O)NCCN2Cc2ccc(-c3ccccc3)cc2)on1 (stereo unspecified)"
  assigned_category: "inactive"
- compound: "COc1cc(C(=S)N2CCCC2)ccc1OCc1ccc(C)cc1"
  assigned_category: "inactive"
- compound: "O=[N+]([O-])c1cccc(S(=O)(=O)Nc2nc3ccccc3nc2Nc2cccc(S(=O)(=O)N3CCCCC3)c2)c1"
  assigned_category: "active"
- compound: "COc1ccc(NC(=S)N(CCCN2CCOCC2)C(C)c2cc3cccc(OC)c3o2)cc1 (stereo unspecified)"
  assigned_category: "inactive"
- compound: "COc1ccc(OCC(=O)NC(=S)Nc2ccc(N3CCOCC3)c(Cl)c2)cc1"
  assigned_category: "active"
- compound: "CN(C)S(=O)(=O)Oc1cccc(C(=O)Nc2ccc(Cl)c(Cl)c2)c1"
  assigned_category: "active"
- compound: "CCCCn1c(-c2csc3c2CCCC3)n[nH]c1=S"
  assigned_category: "active"
- compound: "CCn1nc(C)c(CN2CCCC(CNS(=O)(=O)c3ccc(OC)cc3)C2)c1C (stereo unspecified)"
  assigned_category: "inactive"
- compound: "COc1cc(NC(=O)Cn2nc(C(F)(F)F)c(Br)c2C)cc([N+](=O)[O-])c1"
  assigned_category: "active"
- compound: "CCCN1CCN(CCCNC(=O)Cn2nc(C)n3c(cc4cc(OC)ccc43)c2=O)CC1"
  assigned_category: "inactive"
- compound: "O=[N+]([O-])c1ccc(N=Nc2c(Cl)cc(O)cc2Cl)cc1"
  assigned_category: "active"
- compound: "Fc1cccc(Cl)c1CNCc1cccnc1"
  assigned_category: "inactive"
- compound: "COc1ccc(NC(=O)CCC2CCCCC2)cc1S(=O)(=O)N1CCCCC1"
  assigned_category: "active"

---

# target: Thyrotropin receptor (Homo sapiens) (UniProt P16473)
# Sequence (P16473 whole entry, looked up): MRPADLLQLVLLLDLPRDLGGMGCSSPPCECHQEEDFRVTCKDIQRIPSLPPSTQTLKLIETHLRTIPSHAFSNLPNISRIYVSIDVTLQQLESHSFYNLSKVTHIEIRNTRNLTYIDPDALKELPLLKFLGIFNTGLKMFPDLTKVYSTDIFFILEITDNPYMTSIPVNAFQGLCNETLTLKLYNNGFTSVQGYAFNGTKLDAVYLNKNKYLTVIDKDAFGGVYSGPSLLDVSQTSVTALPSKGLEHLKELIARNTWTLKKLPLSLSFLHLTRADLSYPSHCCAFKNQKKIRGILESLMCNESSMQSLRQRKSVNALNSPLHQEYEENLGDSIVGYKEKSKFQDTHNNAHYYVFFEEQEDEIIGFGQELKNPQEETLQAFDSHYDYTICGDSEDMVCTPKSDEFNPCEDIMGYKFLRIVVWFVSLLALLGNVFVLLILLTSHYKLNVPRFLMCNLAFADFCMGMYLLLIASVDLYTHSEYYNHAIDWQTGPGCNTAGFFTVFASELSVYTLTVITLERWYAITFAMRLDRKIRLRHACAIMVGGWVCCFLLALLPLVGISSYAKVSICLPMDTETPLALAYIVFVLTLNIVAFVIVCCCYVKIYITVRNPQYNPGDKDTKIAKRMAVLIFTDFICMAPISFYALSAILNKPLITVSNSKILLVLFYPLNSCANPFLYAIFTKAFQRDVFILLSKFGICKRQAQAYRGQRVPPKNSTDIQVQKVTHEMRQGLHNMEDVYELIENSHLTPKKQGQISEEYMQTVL
# procedure_summary: qHTS for antagonists of the Thyroid Stimulation Hormone Receptor: Hit Validation in Primary Screen; note: nearly all actives have a fitted effect of over 80% in size
# assay_setup: TSHR-expressing cells, cAMP antagonist mode; series mostly up to 58 µM
About 380 (29%) of roughly 1,300 compounds were called active. Not shown: some 37% with an inconclusive outcome. Calls follow the shape of the dose curve; as a rule, active = well fitted inhibition curve with a large enough effect; inconclusive = small, poorly fitted or top-dose-only effect; inactive = flat fitted curve, though single readings scatter. The list shows a part of the results.
Labels: active, inactive

- molecular_string: "O=C(/C=C/c1ccc(OCCCF)cc1)Nc1ccnc(-c2ccncc2)n1"
  assigned_category: "inactive"
- molecular_string: "COc1ccccc1C(=O)NCCC(=O)Nc1ccc(OC(F)(F)F)cc1"
  assigned_category: "inactive"
- molecular_string: "O=C1CSc2nc3ccccc3n21"
  assigned_category: "inactive"
- molecular_string: "COc1cc(NC(=O)c2cc3ccccc3cc2O)c(OC)cc1Cl"
  assigned_category: "active"
- molecular_string: "CCOc1ccc(-n2c(SCC(=O)Nc3cc(C)on3)nc3c(c2=O)SCC3)cc1"
  assigned_category: "inactive"
- molecular_string: "CCN(CC)c1ccc(C(=O)OCC(=O)N2CCCC2)cc1"
  assigned_category: "inactive"
- molecular_string: "Cc1ccc(Cl)cc1NC(=O)c1cc2ccccc2cc1O"
  assigned_category: "active"
- molecular_string: "O=C(/C=C/c1ccc(Cl)cc1Cl)NCCSCc1ccccc1"
  assigned_category: "active"
- molecular_string: "CS(=O)(=O)N(CC(=O)N1CCOCC1)c1cccc(F)c1"
  assigned_category: "inactive"
- molecular_string: "O=C(NC(=S)Nc1ccc(C(=O)N2CCOCC2)cc1)c1ccc([N+](=O)[O-])cc1"
  assigned_category: "inactive"
- molecular_string: "O=C(NCc1ccc(F)cc1)c1ccncc1"
  assigned_category: "inactive"

---

# target: Thyrotropin receptor (Homo sapiens)
# procedure_summary: qHTS for antagonists of the Thyroid Stimulation Hormone Receptor: Hit Validation in Primary Screen; note: nearly all actives have a fitted effect of over 80% in size
# assay_setup: TSHR-expressing cells, cAMP antagonist mode; series mostly up to 58 µM
The campaign covered roughly 1,300 compounds. About 380 (29%) were called active. Roughly 37% stayed inconclusive and do not appear here. The call rests on the fitted dose curve; in most records, active means well fitted inhibition curve with a large enough effect; inconclusive means small, poorly fitted or top-dose-only effect; inactive means flat fitted curve, though single readings scatter. The list shows a part of the results.
Labels: active, inactive

- molecular_string: "COc1ccc(OC)c2c1C(=O)C(Cl)=C(Cl)C2=O"
  assigned_category: "active"
- molecular_string: "Cc1cccc(OCc2nnc(SCC(=O)N3c4ccccc4CCc4ccccc43)o2)c1"
  assigned_category: "inactive"
- molecular_string: "CNC(=S)n1cnc(N)n1"
  assigned_category: "inactive"
- molecular_string: "COC(CNC(=O)c1ccc(Cn2c(=S)[nH]c3cc4c(cc3c2=O)OCO4)cc1)OC"
  assigned_category: "inactive"
- molecular_string: "CC(C)(C)C(=O)NC(=S)NNC(=O)c1ccc(-c2ccccc2)cc1"
  assigned_category: "inactive"
- molecular_string: "O=S(=O)(Nc1ccc(O)c(Sc2nc3ccccc3s2)c1)c1cccc2ccccc12"
  assigned_category: "active"

---

# target: Thyrotropin receptor (Homo sapiens)
# procedure_summary: qHTS for antagonists of the Thyroid Stimulation Hormone Receptor: Hit Validation in Primary Screen; note: nearly all actives have a fitted effect of over 80% in size
# assay_setup: TSHR-expressing cells, cAMP antagonist mode; series mostly up to 58 µM
Screen size: about 1,300 compounds; about 380 (29%) were called active. About 37% were inconclusive and are not listed. The call rests on the fitted dose curve; in most records, active means well fitted inhibition curve with a large enough effect; inconclusive means small, poorly fitted or top-dose-only effect; inactive means flat fitted curve, though single readings scatter. This is one part of the list.
Labels: T (active), F (inactive)

- molecule: "Cc1nn(Cc2ccc(Cl)cc2)c(C)c1NC(=O)c1noc2c1CCc1ccccc1-2"
  assigned_category: "T"
- molecule: "Cc1ccc(S(=O)(=O)/N=C2/NC(=O)/C(=C\\c3cc(Br)cc(Br)c3O)S2)cc1"
  assigned_category: "T"
- molecule: "Cc1ccccc1NC(=O)C1C2CCCCC21 (stereo unspecified)"
  assigned_category: "F"
- molecule: "Cc1nc2ccccc2n1CC(=O)N/N=C\\C=C\\c1ccccc1"
  assigned_category: "F"
- molecule: "O=C(Oc1c(Br)cc([N+](=O)[O-])cc1Br)c1cccnc1"
  assigned_category: "T"
- molecule: "COc1ccc(CNCc2cc(C)c(OC)cc2C)c(OC)c1"
  assigned_category: "F"
- molecule: "O=C(NN=C1CCCC1)c1cc(Cl)cc(Cl)c1O"
  assigned_category: "F"
- molecule: "COc1ccc(CCNc2ncnc3sc(C)cc23)cc1OC"
  assigned_category: "T"
- molecule: "O=C(CC1C(=O)NCCN1Cc1cccc(F)c1F)NCCCC1CCCC1 (stereo unspecified)"
  assigned_category: "F"
- molecule: "Cc1ccc(N2C(=O)C3C4C=CC(CC4)C3C2=O)cc1Cl (stereo unspecified)"
  assigned_category: "F"
- molecule: "Cc1ccccc1CS(=O)(=O)c1nnc([C@H](Cc2ccccc2)NC(=O)OC(C)(C)C)o1"
  assigned_category: "T"
